I'd be grateful if you could share measured pIC50 for these entries.
Target: USP1 (construct USP1 (I-785, GG670, 671AA)/UAF1 (I-677)-Flag) (Homo sapiens (Human), UniProt O94782, G670A/G671A)
Sequence (O94782 whole entry G670A/G671A): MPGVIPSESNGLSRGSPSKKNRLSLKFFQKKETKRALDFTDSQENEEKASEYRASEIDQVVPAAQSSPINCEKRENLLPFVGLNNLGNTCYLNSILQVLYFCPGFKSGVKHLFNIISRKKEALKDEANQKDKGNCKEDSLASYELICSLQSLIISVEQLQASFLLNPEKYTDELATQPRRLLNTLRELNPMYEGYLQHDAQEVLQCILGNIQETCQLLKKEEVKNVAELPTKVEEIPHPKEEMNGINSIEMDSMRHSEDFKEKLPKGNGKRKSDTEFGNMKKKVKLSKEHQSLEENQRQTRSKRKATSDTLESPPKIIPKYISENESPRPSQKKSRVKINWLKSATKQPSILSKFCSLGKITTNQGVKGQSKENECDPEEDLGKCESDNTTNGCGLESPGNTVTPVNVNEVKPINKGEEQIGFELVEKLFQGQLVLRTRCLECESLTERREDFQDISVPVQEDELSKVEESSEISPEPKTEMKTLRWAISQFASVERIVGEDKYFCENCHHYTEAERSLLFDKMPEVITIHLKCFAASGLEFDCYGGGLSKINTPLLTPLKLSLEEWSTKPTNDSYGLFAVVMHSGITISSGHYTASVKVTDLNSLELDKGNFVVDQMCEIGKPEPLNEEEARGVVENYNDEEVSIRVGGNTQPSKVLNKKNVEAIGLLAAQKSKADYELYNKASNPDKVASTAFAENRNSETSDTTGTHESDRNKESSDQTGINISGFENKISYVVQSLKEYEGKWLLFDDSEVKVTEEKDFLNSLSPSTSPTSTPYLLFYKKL
Sequence (Q8TAF3 whole entry partner): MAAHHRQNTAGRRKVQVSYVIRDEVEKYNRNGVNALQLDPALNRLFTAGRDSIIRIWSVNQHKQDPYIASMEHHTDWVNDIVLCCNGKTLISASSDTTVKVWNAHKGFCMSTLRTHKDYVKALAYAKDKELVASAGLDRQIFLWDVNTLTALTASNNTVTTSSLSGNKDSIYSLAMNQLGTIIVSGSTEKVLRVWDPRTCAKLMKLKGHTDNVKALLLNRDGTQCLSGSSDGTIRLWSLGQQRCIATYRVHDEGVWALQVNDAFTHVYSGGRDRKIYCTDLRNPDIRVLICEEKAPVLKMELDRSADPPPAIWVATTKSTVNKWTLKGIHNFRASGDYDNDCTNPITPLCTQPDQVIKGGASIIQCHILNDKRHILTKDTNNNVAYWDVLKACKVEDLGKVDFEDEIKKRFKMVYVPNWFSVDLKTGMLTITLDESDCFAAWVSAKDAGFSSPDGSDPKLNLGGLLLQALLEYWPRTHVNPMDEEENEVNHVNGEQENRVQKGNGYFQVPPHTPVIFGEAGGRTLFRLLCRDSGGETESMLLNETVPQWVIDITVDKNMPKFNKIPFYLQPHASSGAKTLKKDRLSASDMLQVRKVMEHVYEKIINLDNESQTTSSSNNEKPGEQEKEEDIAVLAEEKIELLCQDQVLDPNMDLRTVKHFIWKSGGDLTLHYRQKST
Assay: Ubiquitin-Rhodamine 110 assay for USP1 activity
Conditions: USP1/UAF1 25 pM, Ub-Rh110 25 nM, 30 min preincubation
pIC50: −log10 of the molar value.

pIC50 recorded for this compound, CC(=O)c1nc(-c2ccccc2C(C)C)nc2c1[nH]c(=O)n2Cc1ccc(-c2nc(C(F)(F)F)cn2C)cc1 , is 6.70 to 7.30

pIC50 recorded for this compound, COC1CCCN(C(=O)c2ccc(Cn3c(=O)[nH]c4cnc(-c5ccccc5C(C)C)nc43)cc2)C1 (stereo not shown) , is 6.70 to 7.30

pIC50 recorded for this compound, CC(C)c1ccccc1-c1ncc2c(n1)n(Cc1ccc(-c3nccn3C(C)C)cc1)c(=O)n2C , is > 7.30

pIC50 recorded for this compound, Cn1ccc2cccc(-c3ncc4[nH]c(=O)n(Cc5ccc(-n6cccn6)cc5)c4n3)c21 , is 5.70 to 6.70

pIC50 recorded for this compound, CC(C)c1ccccc1-c1ncc2[nH]c(=O)n(Cc3ccc(-n4nc(C#N)cc4C#N)cc3)c2n1 , is > 7.30

pIC50 recorded for this compound, CC(C)c1ccccc1-c1ncc2[nH]c(=O)n(Cc3ccc(-c4cnnn4C)cc3)c2n1 , is < 5.70

pIC50 recorded for this compound, CC(C)c1ccccc1-c1ncc2[nH]c(=O)n(CC3(F)CCN(S(=O)(=O)C4CC4)CC3)c2n1 , is 5.70 to 6.70

----------
Molecular target: USP1 (construct USP1 (I-785, GG670, 671AA)/UAF1 (I-677)-Flag) (Homo sapiens (Human), UniProt O94782, G670A/G671A)
Test: Ubiquitin-Rhodamine 110 assay for USP1 activity
Conditions: USP1/UAF1 25 pM, Ub-Rh110 25 nM, 30 min preincubation
pIC50: −log10 of the molar value.
property label: pIC50

pIC50 recorded for this molecule, Cn1cc(C(F)(F)F)nc1-c1ccc(Cn2c(=O)[nH]c3cnc(-c4cccnc4NCC4CCCO4)nc32)cc1 (stereo not shown) , is 6.70 to 7.30

pIC50 recorded for this molecule, CC(C)c1ncccc1-c1ncc2c(n1)n(Cc1ccc(-n3cccn3)cc1)c(=O)n2C , is 5.70 to 6.70

pIC50 recorded for this molecule, CC(C)c1ccccc1-c1ncc2[nH]c(=O)n([C@@H](C)c3ccc(-n4ccnn4)cc3)c2n1 , is 6.70 to 7.30

pIC50 recorded for this molecule, CO[C@H](C)c1ccccc1-c1ncc2[nH]c(=O)n(Cc3ccc(-c4nc(C(F)(F)F)cn4C)cc3)c2n1 , is > 7.30

pIC50 recorded for this molecule, CC(C)c1ccccc1-c1ncc2[nH]c(=O)n([C@H](CO)c3ccccc3)c2n1 , is 5.70 to 6.70

pIC50 recorded for this molecule, CC(C)c1ncccc1-c1ncc2c(n1)n(Cc1ccc(-c3nc(C(F)(F)F)cn3C3COC3)cc1)c(=O)n2C , is 6.70 to 7.30

pIC50 recorded for this molecule, CC(=O)N1CCC(c2ccn(-c3ccc(Cn4c(=O)[nH]c5cnc(-c6cccc(F)c6C(C)C)nc54)cc3)n2)CC1 , is 6.70 to 7.30
